Tested on: TNF-α
Experiment: TNF-α cytokine activation in human PBMC (MSD assay)
Format: cell-based
Settings: 24 h, 2,2,2-trifluoroacetate
Description: The other below tests involving measuring the in vitro activity of some compounds of the disclosure on cytokines IFN-α2a, IL-6, IL29 and TNF-α were carried out using human PBMC (PBMCs). […] Peripheral blood mononuclear cells were isolated by Ficoll density gradient centrifugation from peripheral blood samples obtained from healthy donors (EFS). […] After washing, SULFO-TAG® labeled detection antibodies were added to each of the wells and incubated for 1 h RT before adding a read buffer.
assay_metric: pEC50
pEC50 here: minus log base 10 of the concentration, concentration in moles per litre.

Form field pEC50, entry CCCCc1nc2c(N)nnc(OC(C)C)c2n1Cc1ccc(CN)cc1 [Compound 22, 2,2,2-trifluoroacetate] : 5.55
